Test system: 317291-083-R-J1-PDC complex spheroids, viability;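 note: spheroids exposed to compounds for one week before readout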
ASSAY OVERVIEW: Anticancer human tumor 317291-083-R-J1-PDC patient-derived soft tissue sarcoma cell line growth inhibition [GQUAD]; active = viability on the fitted dose curve at most 10% of control; inactive = the rest
CONDITION SUMMARY: second compound 0.0316 µM; first compound 1 µM
From the text: DNA G-quadruplex Stabilizer Agents in Combinations in Complex Spheroids A high-throughput screen of multi-cell type tumor spheroids was designed to identify active combinations of DNA G-quadruplex stabilizer agents and targeted small molecules. […] Compounds. […] If the clinical Cmax for an agent had not been determined, the highest concentration tested was 10 microM. […]
Classes used: active, inactive

{"MOLECULE": "CC(=O)O[C@H]1C(=O)[C@@]2(C)[C@H]([C@H](OC(=O)c3ccccc3)[C@]3(O)C[C@H](OC(=O)[C@H](O)[C@@H](NC(=O)c4ccccc4)c4ccccc4)C(C)=C1C3(C)C)[C@]1(OC(C)=O)CO[C@@H]1C[C@@H]2O + Cc1[nH]c2ccc(F)cc2c1-c1nc2c3cccnc3c3ncccc3c2[nH]1", "TARGET OR SYSTEM": "317291-083-R-J1-PDC complex spheroids, viability", "LABEL VALUE": "inactive"}
{"MOLECULE": "CCCS(=O)(=O)Nc1ccc(F)c(C(=O)c2c[nH]c3ncc(-c4ccc(Cl)cc4)cc23)c1F + Cc1cnc(CNC(=O)c2c(=O)c3ccc(N4CCCN(C)CC4)nc3n3c2sc2ccccc23)cn1", "TARGET OR SYSTEM": "317291-083-R-J1-PDC complex spheroids, viability", "LABEL VALUE": "inactive"}
{"MOLECULE": "CC1COCCN1c1cc(C2(S(C)(=N)=O)CC2)nc(-c2ccnc3[nH]ccc23)n1 (stereo not given) + CN(C)c1ccc(Nc2c3ccc(NC(=O)CCN4CCCC4)cc3nc3cc(NC(=O)CCN4CCCC4)ccc23)cc1", "TARGET OR SYSTEM": "317291-083-R-J1-PDC complex spheroids, viability", "LABEL VALUE": "inactive"}
{"MOLECULE": "CC1COCCN1c1cc(C2(O)CC3CCC(C2)O3)c2cnn(-c3ccn[nH]3)c2n1 (stereo not given) + CN(C)c1ccc(Nc2c3ccc(NC(=O)CCN4CCCC4)cc3nc3cc(NC(=O)CCN4CCCC4)ccc23)cc1", "TARGET OR SYSTEM": "317291-083-R-J1-PDC complex spheroids, viability", "LABEL VALUE": "inactive"}
{"MOLECULE": "COc1cccc2c1C(=O)c1c(O)c3c(c(O)c1C2=O)CC(O)(C(=O)CO)CC3OC1CC(N)C(O)C(C)O1 (stereo not given) + CN(C)c1ccc(Nc2c3ccc(NC(=O)CCN4CCCC4)cc3nc3cc(NC(=O)CCN4CCCC4)ccc23)cc1", "TARGET OR SYSTEM": "317291-083-R-J1-PDC complex spheroids, viability", "LABEL VALUE": "active"}
{"MOLECULE": "O=C(c1cc(Cc2n[nH]c(=O)c3ccccc23)ccc1F)N1CCN(C(=O)C2CC2)CC1 + CN(C)c1ccc(Nc2c3ccc(NC(=O)CCN4CCCC4)cc3nc3cc(NC(=O)CCN4CCCC4)ccc23)cc1", "TARGET OR SYSTEM": "317291-083-R-J1-PDC complex spheroids, viability", "LABEL VALUE": "inactive"}
{"MOLECULE": "C#Cc1c(F)ccc2cc(O)cc(-c3ncc4c(N5CC6CCC(C5)N6)nc(OCC56CCCN5CC(F)C6)nc4c3F)c12 (stereo not given) + Cc1cnc(CNC(=O)c2c(=O)c3ccc(N4CCCN(C)CC4)nc3n3c2sc2ccccc23)cn1", "TARGET OR SYSTEM": "317291-083-R-J1-PDC complex spheroids, viability", "LABEL VALUE": "inactive"}
{"MOLECULE": "COc1ccc([C@@H](O)c2cc(-c3ncnc4cc(N5CCOCC5)ccc34)c(F)cc2Cl)nn1 + Cc1[nH]c2ccc(F)cc2c1-c1nc2c3cccnc3c3ncccc3c2[nH]1", "TARGET OR SYSTEM": "317291-083-R-J1-PDC complex spheroids, viability", "LABEL VALUE": "inactive"}
{"MOLECULE": "COc1ccc([C@@H](O)c2cc(-c3ncnc4cc(N5CCOCC5)ccc34)c(F)cc2Cl)nn1 + Cc1cnc(CNC(=O)c2c(=O)c3ccc(N4CCCN(C)CC4)nc3n3c2sc2ccccc23)cn1", "TARGET OR SYSTEM": "317291-083-R-J1-PDC complex spheroids, viability", "LABEL VALUE": "inactive"}
{"MOLECULE": "CC(C)n1c(=O)n(C)c2cnc3cc(F)c(-c4ccc(OCCCN5CCCCC5)nc4)cc3c21 + CN(C)c1ccc(Nc2c3ccc(NC(=O)CCN4CCCC4)cc3nc3cc(NC(=O)CCN4CCCC4)ccc23)cc1", "TARGET OR SYSTEM": "317291-083-R-J1-PDC complex spheroids, viability", "LABEL VALUE": "inactive"}
{"MOLECULE": "COc1cc(C2c3cc4c(cc3C(OC3OC5COC(C)OC5C(O)C3O)C3COC(=O)C23)OCO4)cc(OC)c1O (stereo not given) + CN(C)c1ccc(Nc2c3ccc(NC(=O)CCN4CCCC4)cc3nc3cc(NC(=O)CCN4CCCC4)ccc23)cc1", "TARGET OR SYSTEM": "317291-083-R-J1-PDC complex spheroids, viability", "LABEL VALUE": "inactive"}
{"MOLECULE": "COc1ncnc(C2CC2)c1-c1ncc2cnn(Cc3ccc(-c4nc(C(F)(F)F)cn4C(C)C)cc3)c2n1 + CN(C)c1ccc(Nc2c3ccc(NC(=O)CCN4CCCC4)cc3nc3cc(NC(=O)CCN4CCCC4)ccc23)cc1", "TARGET OR SYSTEM": "317291-083-R-J1-PDC complex spheroids, viability", "LABEL VALUE": "inactive"}
{"MOLECULE": "CC(C)(O)C1CCC(Nc2ccc3ncc(-c4cccc(C(F)(F)F)c4)n3n2)CC1 (stereo not given) + Cc1[nH]c2ccc(F)cc2c1-c1nc2c3cccnc3c3ncccc3c2[nH]1", "TARGET OR SYSTEM": "317291-083-R-J1-PDC complex spheroids, viability", "LABEL VALUE": "inactive"}
{"MOLECULE": "COc1cccc2c1C(=O)c1c(O)c3c(c(O)c1C2=O)CC(O)(C(=O)CO)CC3OC1CC(N)C(O)C(C)O1 (stereo not given) + Cc1cnc(CNC(=O)c2c(=O)c3ccc(N4CCCN(C)CC4)nc3n3c2sc2ccccc23)cn1", "TARGET OR SYSTEM": "317291-083-R-J1-PDC complex spheroids, viability", "LABEL VALUE": "active"}
{"MOLECULE": "C=CC(=O)N1CCN(c2nc(=O)n(-c3c(C)ccnc3C(C)C)c3nc(-c4c(O)cccc4F)c(F)cc23)C(C)C1 (stereo not given) + CN(C)c1ccc(Nc2c3ccc(NC(=O)CCN4CCCC4)cc3nc3cc(NC(=O)CCN4CCCC4)ccc23)cc1", "TARGET OR SYSTEM": "317291-083-R-J1-PDC complex spheroids, viability", "LABEL VALUE": "inactive"}
{"MOLECULE": "CC1COCCN1c1cc(-c2ccnn2C)c2ccnc(-c3ccn[nH]3)c2n1 (stereo not given) + Cc1[nH]c2ccc(F)cc2c1-c1nc2c3cccnc3c3ncccc3c2[nH]1", "TARGET OR SYSTEM": "317291-083-R-J1-PDC complex spheroids, viability", "LABEL VALUE": "inactive"}
{"MOLECULE": "C#Cc1c(F)ccc2cc(O)cc(-c3ncc4c(N5CC6CCC(C5)N6)nc(OCC56CCCN5CC(F)C6)nc4c3F)c12 (stereo not given) + CN(C)c1ccc(Nc2c3ccc(NC(=O)CCN4CCCC4)cc3nc3cc(NC(=O)CCN4CCCC4)ccc23)cc1", "TARGET OR SYSTEM": "317291-083-R-J1-PDC complex spheroids, viability", "LABEL VALUE": "inactive"}
{"MOLECULE": "CC1COCCN1c1cc(C2(S(C)(=N)=O)CC2)nc(-c2ccnc3[nH]ccc23)n1 (stereo not given) + Cc1[nH]c2ccc(F)cc2c1-c1nc2c3cccnc3c3ncccc3c2[nH]1", "TARGET OR SYSTEM": "317291-083-R-J1-PDC complex spheroids, viability", "LABEL VALUE": "inactive"}
{"MOLECULE": "O=C(NO)c1cnc(N2CCN(S(=O)(=O)c3ccc4ccccc4c3)CC2)nc1 + Cc1[nH]c2ccc(F)cc2c1-c1nc2c3cccnc3c3ncccc3c2[nH]1", "TARGET OR SYSTEM": "317291-083-R-J1-PDC complex spheroids, viability", "LABEL VALUE": "active"}
{"MOLECULE": "COc1ncnc(C2CC2)c1-c1ncc2cnn(Cc3ccc(-c4nc(C(F)(F)F)cn4C(C)C)cc3)c2n1 + Cc1[nH]c2ccc(F)cc2c1-c1nc2c3cccnc3c3ncccc3c2[nH]1", "TARGET OR SYSTEM": "317291-083-R-J1-PDC complex spheroids, viability", "LABEL VALUE": "inactive"}
